In this section we review reported 300 nM Avg values for a set of compounds.
# target of assay: M1 W101A receptor (Rattus norvegicus, UniProt P08482, W101A)
# Construct: expressed in transfected cells
# Sequence (P08482 whole entry W101A): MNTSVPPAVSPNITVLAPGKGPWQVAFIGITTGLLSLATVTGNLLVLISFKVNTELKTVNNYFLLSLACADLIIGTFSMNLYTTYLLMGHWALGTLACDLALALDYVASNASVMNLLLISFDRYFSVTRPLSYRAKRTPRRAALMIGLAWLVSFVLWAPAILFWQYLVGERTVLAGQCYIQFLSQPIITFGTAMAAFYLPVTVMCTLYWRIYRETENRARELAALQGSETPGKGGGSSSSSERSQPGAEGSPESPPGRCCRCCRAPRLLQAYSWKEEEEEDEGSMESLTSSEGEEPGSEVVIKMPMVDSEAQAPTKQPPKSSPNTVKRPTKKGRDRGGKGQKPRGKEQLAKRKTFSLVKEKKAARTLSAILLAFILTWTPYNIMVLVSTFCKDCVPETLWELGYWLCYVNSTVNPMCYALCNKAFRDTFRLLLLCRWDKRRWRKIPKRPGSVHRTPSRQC
# assay protocol: R-SAT HTS on M1 W101A receptor
# Format: cell-based
# recorded conditions: compound at 300 nM, triplicate retest, activity over basal cellular response
endpoint label: 300 nM Avg

1. CCCCC1CCN(CCCN2C(=O)CCc3ccccc32)CC1.O=C(O)C(=O)O; 3.13
2. CCCCC1CCN(CCCN2C(=O)CSc3ccccc32)CC1.O=C(O)C(=O)O; 3.30
3. CCCCC1CCN(CCCN2C(=O)CCc3cc(OC)ccc32)CC1.O=C(O)C(=O)O; 3.32
4. CCCCC1CCN(CCn2c(=O)[nH]c3ccccc32)CC1; 3.26
5. CCCOC1CCN(C[C@@H](C)CN2C(=O)COc3ccccc32)CC1.O=C(O)C(=O)O; 4.14
6. CCCCC1CCN(C[C@@H](C)CN2C(=O)CCc3ccccc32)CC1.O=C(O)C(=O)O; 3.93
7. CC(C)COc1ccc(CC(=O)N(Cc2ccc(F)cc2)C2CCN(CCCN3C(=O)OC[C@@H]3C(C)C)CC2)cc1.O=C(O)C(=O)O; 2.58
8. CCOCCC1CCN(CCCn2c(=O)[nH]c3ccccc32)CC1.O=C(O)C(F)(F)F; 2.70
9. CCCOC1CCN(C[C@@H](C)Cn2c(=O)ccc3ccccc32)CC1.O=C(O)C(=O)O; 4.29
10. CCCOC1CCN(CCCn2c(=O)ccc3ccccc32)CC1; 3.90
11. COCCC1CCN(CCCn2c(=O)sc3ccccc32)CC1.O=C(O)C(=O)O; 2.87
12. CCCCC1CCN(C[C@@H](C)Cn2c(=O)ccc3ccccc32)CC1.O=C(O)C(O)C(O)C(=O)O; 4.34
13. CCCC=C1CCN(C[C@@H](C)CN2C(=O)COc3ccc(F)cc32)CC1.O=C(O)C(=O)O; 3.81
14. CCCCC1CCN(CCCn2c(=O)ccc3cc(F)ccc32)CC1; 3.81
15. CCCCC1CCN(CCCN2C(=O)COc3ccccc32)CC1.O=C(O)C(=O)O; 3.86
